- test_details: binders from COS7 lysate, DM2A8 probe, primary screen, torsin A project, cell lysate, small-molecule microarray, fluorescence 635/667 (AID 1065)
- condition_notes: higher = more signal, COS7 lysate expressing mutant human TOR1A
outcome_measure: composite z-score

line_notation | outcome_measure | result
O=C1C[C@@](C(=O)NCCN2CCOCC2)(c2ccc([N+](=O)[O-])cc2)[C@@H](c2ccc(CO)cc2)N1CC12CC3CC(CC(C3)C1)C2 | composite z-score | 0.667
COc1ccc([Si](C)(C)[C@@H]2[C@@H](CCO)O[C@]3(C(=O)N(Cc4ccc(N(C=O)c5ccccc5)cc4)c4ccccc43)[C@H]2C)cc1 | composite z-score | 0.0422
COc1ccc(C#Cc2ccc3c(c2)[C@]2(C(=O)N3)[C@H](c3ccccc3OCCO)N3[C@H](c4ccccc4)[C@H](c4ccccc4)OC(=O)[C@H]3[C@@H]2C(=O)Nc2nc3ccccc3s2)cc1 | composite z-score | -0.0327
CN(C)CCCCCCNC(=O)[C@H]1C[C@H]2C(=O)N[C@@H](CCCCN)C(=O)N2[C@H]1c1cccc(OCCO)c1 | composite z-score | 2.48
COC(=O)[C@@]1(Cc2ccc(F)cc2)[C@H]2c3cc(C(=O)N(C)C)n(Cc4ccccc4)c3C[C@H]2CN1C(=O)c1ccccc1 | composite z-score | -0.267
C=C(CCCC)/C(=C/C[C@@H](OC(=O)c1ccncc1)c1ccc(OCCO)cc1)c1cc(C(=O)OC)ccc1OC | composite z-score | 0.807
CN(C)CCCCCCNC(=O)[C@H]1C[C@H]2C(=O)N3CCC[C@H]3C(=O)N2[C@H]1c1ccc(O)cc1 | composite z-score | 1.93
